- Test Target: human B1R receptor (Homo sapiens, UniProt P46663)
- Construct: host or cells: CHO K1 cells (Chinese hamster ovary), stably transfected
- Sequence (P46663 1-353): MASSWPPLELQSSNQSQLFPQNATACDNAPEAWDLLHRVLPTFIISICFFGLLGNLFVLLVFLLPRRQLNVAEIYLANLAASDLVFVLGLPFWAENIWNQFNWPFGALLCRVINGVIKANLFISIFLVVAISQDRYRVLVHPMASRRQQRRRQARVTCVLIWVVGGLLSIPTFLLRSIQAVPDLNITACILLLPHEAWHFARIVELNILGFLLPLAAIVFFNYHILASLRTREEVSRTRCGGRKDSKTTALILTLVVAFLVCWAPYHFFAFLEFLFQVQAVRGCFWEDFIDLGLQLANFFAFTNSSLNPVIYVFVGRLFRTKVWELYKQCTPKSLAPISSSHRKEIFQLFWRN
- Test Protocol: Functional study on the bradykinin receptor 1 (B1R), FLIPR Ca2+ assay, hB1R cells
- Format: cell-based
- Experimental Conditions: CHO-K1, test substance 10 μM, agonist Lys-Des-Arg9-bradykinin 0.5 nM, % inhibition compared with the maximum achievable inhibition, read-out: B1R Antagonism, human [10 μM] % Inhibition
Recorded Endpoint: inhibition at 10 µM

Examples with answers:
# Compound, inhibition at 10 µM
data = [
    ("COc1cc(C)c(S(=O)(=O)N2CCCCC2COCC(=O)Nc2cc(-c3ccccc3OC)[nH]n2)c(C)c1 (stereo not drawn)", "7.17%"),
    ("O=C(COCC1CCCCN1S(=O)(=O)c1ccc(Cl)c(Cl)c1)Nc1cccc(CN2CCCC2)c1 (stereo not drawn)", "90.5%"),
    ("COc1cc(C)c(S(=O)(=O)N2CCCCC2COCC(=O)N2CCCN(C)CC2)c(C)c1 (stereo not drawn)", "98.7%"),
    ("O=C(COCC1CCCCN1S(=O)(=O)c1c(Cl)cccc1Cl)NCc1ccc(CN2CCCC2)cc1 (stereo not drawn)", "103%"),
    ("COc1cc(C)c(S(=O)(=O)N2Cc3ccccc3CC2COCC(=O)N2CCN(c3ccccc3)CC2)c(C)c1C (stereo not drawn)", "32.3%"),
]

Query: Which inhibition at 10 µM is listed for COc1cc(C)c(S(=O)(=O)N2CCCCC2COCC(=O)N2CCCCCC2c2ccc(N(C)C)cc2)c(C)c1 (stereo not drawn) ?
Result: 62%

Query: I am curious: what inhibition at 10 µM value has been reported for COc1cc(C)c(S(=O)(=O)N2CCCCC2COCC(=O)N2CC[C@@H](N(C)C)C2)c(C)c1 (stereo partly drawn) ?
Result: 90.7%

Query: Looking for the measured inhibition at 10 µM of COc1cc(C)c(S(=O)(=O)N2CCCCC2COCC(=O)N2CCN(C3CCC(C(F)(F)F)CC3)CC2)c(C)c1 (stereo not drawn) , can you help?
Result: 102%

Query: // lookup inhibition at 10 µM for COc1cc(C)c(S(=O)(=O)N2CCCCC2COCC(=O)Nc2ccc(N3CCCC3)cc2)c(C)c1 (stereo not drawn)
Result: 28.1%

Query: Quick check: inhibition at 10 µM of O=C(COCC1CCCCN1S(=O)(=O)c1c(Cl)cccc1Cl)N1CCN(c2ccc(Cl)c(Cl)c2)CC1 (stereo not drawn) ?
Result: 55.1%
